Reference source for all entries: patent EP4678644A1

- assay_system: PDE4B2 (Homo sapiens)
- Construct: expressed in transfected cells; host or cells: Flp-In-293 (Flpin-293-PDE4B2 [sic])
- Sequence (Q07343 1-564 isoform Q07343-2): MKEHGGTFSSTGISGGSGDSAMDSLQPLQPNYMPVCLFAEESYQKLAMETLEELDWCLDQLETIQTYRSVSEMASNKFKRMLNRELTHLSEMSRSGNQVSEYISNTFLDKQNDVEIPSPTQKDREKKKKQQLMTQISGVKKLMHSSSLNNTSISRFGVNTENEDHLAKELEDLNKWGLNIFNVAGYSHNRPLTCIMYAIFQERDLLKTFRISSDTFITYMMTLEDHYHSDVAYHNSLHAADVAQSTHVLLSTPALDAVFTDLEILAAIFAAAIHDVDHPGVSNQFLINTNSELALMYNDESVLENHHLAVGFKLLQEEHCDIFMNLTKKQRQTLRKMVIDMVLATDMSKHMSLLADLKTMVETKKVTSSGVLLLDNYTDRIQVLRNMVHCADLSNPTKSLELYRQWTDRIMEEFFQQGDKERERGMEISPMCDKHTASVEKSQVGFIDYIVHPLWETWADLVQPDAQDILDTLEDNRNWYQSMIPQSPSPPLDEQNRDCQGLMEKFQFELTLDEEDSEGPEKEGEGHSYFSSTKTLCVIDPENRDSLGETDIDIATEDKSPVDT
- measurement_description: PDE4B2 enzyme experiment (AMP-glo, cAMP substrate)
- Format: biochemical
- conditions: 100 nM
measure: PDE4B2 Enzyme Inhibition% @100 nM (%)
// units = %; emit number, no label

## Task Tell me PDE4B2 Enzyme Inhibition% @100 nM of [O-][S+]1CCc2nc(N3CCc4ccsc4C3)nc(NC3(CO)CCC3)c21 (centres unmarked) when tested on PDE4B2 (Homo sapiens).
## Result 99.04

## Task Tell me PDE4B2 Enzyme Inhibition% @100 nM of [O-][S+]1CCc2nc(N3Cc4ccc(Cl)cc4C3)nc(NC3(CO)CCC3)c21 (centres unmarked) when tested on PDE4B2 (Homo sapiens).
## Result 98.64

## Task Tell me PDE4B2 Enzyme Inhibition% @100 nM of Cn1nc2c(c1Cl)CN(c1nc3c(c(NC4(CO)CCC4)n1)[S+]([O-])CC3)CC2 (centres unmarked) when tested on PDE4B2 (Homo sapiens).
## Result 97.48

## Task Tell me PDE4B2 Enzyme Inhibition% @100 nM of O=[N+]([O-])c1ccc2c(c1)CN(c1nc3c(c(NC4(CO)CCC4)n1)[S+]([O-])CC3)C2 (centres unmarked) when tested on PDE4B2 (Homo sapiens).
## Result 98.20

## Task Tell me PDE4B2 Enzyme Inhibition% @100 nM of [O-][S+]1CCc2nc(N3CCc4ccc(Br)cc4CC3)nc(NC3(CO)CCC3)c21 (centres unmarked) when tested on PDE4B2 (Homo sapiens).
## Result 100.22

## Task Tell me PDE4B2 Enzyme Inhibition% @100 nM of [O-][S+]1CCc2nc(N3Cc4ccc(C(F)(F)F)cc4C3)nc(NC3(CO)CCC3)c21 (centres unmarked) when tested on PDE4B2 (Homo sapiens).
## Result 100.57

## Task Tell me PDE4B2 Enzyme Inhibition% @100 nM of [O-][S+]1CCc2nc(N3CCc4sc(Br)cc4C3)nc(NC3(CO)CCC3)c21 (centres unmarked) when tested on PDE4B2 (Homo sapiens).
## Result 99.90

## Task Tell me PDE4B2 Enzyme Inhibition% @100 nM of COc1ccc2c(c1)CCN(c1nc3c(c(NC4(CO)CCC4)n1)[S+]([O-])CC3)CC2 (centres unmarked) when tested on PDE4B2 (Homo sapiens).
## Result 100.06
